Hello, the source for this data is patent US10640534B2, in case you need it.

Provide the recorded IC50 for the entries that follow.
- System: U87MG cells
- test: Cellular assay, inhibition of 2-HG production in U87MG cells
- Assay type: cell-based
- condition summary: Homo sapiens, U-87 MG, 48 h

IC50 in this record for N#Cc1ccnc(N2C(=O)[C@H](O)C[C@H]2C(=O)N(c2cc(F)cc(F)c2)[C@@H](C(=O)NC2CC(F)(F)C2)c2ccccc2Cl)n1 : 100 to 500 nM

IC50 in this record for CC(C)(C)OC(=O)N1CC(=O)N(c2nccc(C#N)n2)[C@H](C(=O)N(c2cc(F)cc(F)c2)[C@H](C(=O)NC2CCC(F)(F)CC2)c2ccccc2Cl)C1 : < 100 nM

IC50 in this record for CS(=O)(=O)c1cc(F)cc(N(C(=O)[C@@H]2CCC(=O)N2c2nccc(C#N)n2)C(C(=O)NC2CCC(F)(F)CC2)c2ccccc2Cl)c1 (stereo partly drawn) : < 100 nM

---

- target desc: IDH1 R132C (Homo sapiens (Human), UniProt O75874, R132C)
- Sequence (O75874 whole entry R132C): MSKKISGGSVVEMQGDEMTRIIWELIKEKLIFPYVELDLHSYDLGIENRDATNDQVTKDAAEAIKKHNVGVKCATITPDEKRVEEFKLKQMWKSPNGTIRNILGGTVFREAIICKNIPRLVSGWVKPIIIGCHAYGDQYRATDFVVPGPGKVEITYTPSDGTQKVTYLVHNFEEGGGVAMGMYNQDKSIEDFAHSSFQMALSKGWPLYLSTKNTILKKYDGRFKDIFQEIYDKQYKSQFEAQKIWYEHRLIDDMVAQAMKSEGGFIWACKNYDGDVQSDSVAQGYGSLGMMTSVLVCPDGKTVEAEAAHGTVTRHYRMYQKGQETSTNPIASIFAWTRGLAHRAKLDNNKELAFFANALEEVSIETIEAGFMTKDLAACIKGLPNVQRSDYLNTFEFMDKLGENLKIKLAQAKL
- test: In vitro NADPH depletion assay for IDH1m R132C inhibitors
- condition summary: enzyme, read-out: IDH R132C IC50
pIC50: −log10 of the molar value.
observation type: pIC50

With IDH1 R132C (Homo sapiens (Human), UniProt O75874, R132C) as the test system, O=C(NC1CC(F)(F)C1)[C@H](c1ccccc1Cl)N(C(=O)[C@@H]1CCC(=O)N1c1ccncn1)c1cccc(F)c1 showed pIC50 of 6.30 to 7.00

---

- System: U87MG cells
- test: Cellular assay, inhibition of 2-HG production in U87MG cells
- Format: cell-based
- condition summary: Homo sapiens, U-87 MG, 48 h
pIC50: −log10 of the molar value.
Provide the recorded pIC50 for the entries that follow.

pIC50 in this record for N#Cc1cnc(N2C(=O)CC[C@H]2C(=O)N(c2cc(F)cc(F)c2)[C@H](C(=O)NC2CC(F)(F)C2)c2ccccc2Cl)o1 [Compound 162] : > 7.00

pIC50 in this record for N#Cc1ccnc(N2C(=O)OCC[C@H]2C(=O)N(c2cc(F)cc(F)c2)[C@H](C(=O)NC2CCC(F)(F)CC2)c2ccccc2Cl)c1 [Compound 139] : > 7.00

pIC50 in this record for N#Cc1ccnc(N2C(=O)CC[C@H]2C(=O)N(c2ccccc2F)[C@H](C(=O)NC2CC(F)(F)C2)c2ccccc2Cl)c1 [Compound 187] : > 7.00
